assay-details: Quantitative highthroughput screen to assess conditional lethalithy of SEM cells grown in RPMI1640 with dialyzed fetal bovine serum (RPMI+ds) (AID 1963884); note: nearly all actives have a fitted effect of over 35% in size;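 for viability: 100% = DMSO control wells and 0% = empty wells without cells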
assay-context: SEM B-ALL cells, RPMI+dialyzed FBS, CellTiter-Glo viability, 48 h; series mostly up to 45.8 µM
Inconclusive results are not listed. Activity calls are given as the source filed them. Calls come from the whole dose curve; as a rule, active = well fitted cell-killing curve with a large enough effect; inconclusive = small, poorly fitted or top-dose-only effect, or effect the other way; inactive = no such curve, though single readings can be large or run the other way.
Use one of these outcomes when replying: Yes for active, No for inactive

Called result for CNC(=O)c1cc(Oc2ccc(NC(=O)Nc3cc(C(C)(C)C)nn3-c3ccc4ncccc4c3)c(F)c2)ccn1
Yes

Follow-up entry: COc1ccc(C(=O)CC2(O)C(=O)Nc3c(Cl)ccc(Cl)c32)cc1 (stereo not given)
Yes

Can you handle CCOC(=O)C(C)Oc1cccc2c(=O)n(CC(=O)Nc3ccc4c(c3)OCCO4)ccc12 (stereo not given) next?
No

Would you mind doing CC(C)NCC(O)COc1ccc(COCCOC(C)C)cc1 (stereo not given) as well?
No

Let us now turn to O=C(CCCN1CCC(O)(c2ccc(Cl)cc2)CC1)c1ccc(F)cc1
No

====

assay-details: Quantitative highthroughput screen to assess conditional lethalithy of SEM cells grown in Human Plasma-Like Medium with dialyzed fetal bovine serum (HPLM+ds) (AID 1963882); note: nearly all actives have a fitted effect of over 35% in size
assay-context: SEM B-ALL cells in HPLM+ds, CellTiter-Glo viability, 48 h; series mostly up to 45.8 µM
Records with an inconclusive call do not appear. The source made the active and inactive calls. Calls follow the shape of the dose curve; as a rule, active = well fitted cell-killing curve with a large enough effect; inconclusive = small, poorly fitted or top-dose-only effect, or effect the other way; inactive = no such curve, though single readings can be large or run the other way.
# valid calls are Yes for active, No for inactive; nothing else

Which outcome did this test record for the molecule CNC(=O)c1cc(COc2nnc(Nc3ccc(Cl)cc3)c3ccoc23)ccn1 ?
Yes

Now try CC(C)c1ccccc1Cc1cc(C(=O)Nc2ccc(S(=O)(=O)c3ccccc3C(C)(C)C)cc2)c(O)c(O)c1O .
No

Now give it for COc1ccc2c3c1OC1C[C@@H](O)C=C[C@@]31CCN(C)C2 (stereo not given in full) too.
No

Further, for COc1ncnc(NS(=O)(=O)c2ccc(N)cc2)c1OC ?
Yes

Now consider C[C@@H](NC(=O)c1ncnc(N)c1Cl)c1ncc(C(=O)Nc2cc(C(F)(F)F)c(Cl)cn2)s1 .
No

====

assay-details: Viability qHTS for spleen associated tyrosine kinase inhibitor (SYKi) drug resistant MV4-11 cells (AID 1963824); note: nearly all actives have a fitted effect of over 35% in size
assay-context: SYKi-resistant MV4-11 viability, CellTiter-Glo, 72 h; series mostly up to 45 µM
Records with an inconclusive call do not appear. The source made the active and inactive calls. The call rests on the fitted dose curve; in most records, active means well fitted cell-killing curve with a large enough effect; inconclusive means small, poorly fitted or top-dose-only effect, or effect the other way; inactive means no such curve, though single readings can be large or run the other way.
Returns: one label drawn from active, inactive

Test call, this compound: O=c1cc(-c2cccc(O)c2)oc2c(O)c(O)ccc12
active

Same read-out for CCC(C)C1NC(=O)C(Cc2ccccc2)NC(=O)C(CCCCCC(=O)C(O)CO)NC(=O)C2CCCCN2C1=O (centres undefined) ?
active

Same read-out for CC#C[C@@H](CC(=O)O)c1ccc(OCc2cccc(-c3ccc(C(F)(F)F)cc3)c2)cc1 ?
active

Now the same for O=C(CCOCCOCCOCCOCCC(=O)Nc1c(I)cc(I)c(C(=O)O)c1I)Nc1c(I)cc(I)c(C(=O)O)c1I
inactive

And NC(N)=NN=C(/C=C/c1ccc([N+](=O)[O-])o1)/C=C/c1ccc([N+](=O)[O-])o1 ?
active

Record: CC1(C)C[C@@H]2[C@H](C1)[C@@]1(C)C[C@]13C(O)OC[C@]3(O)[C@H]2O (some centres undefined)
inactive

Same for CC1(C)C2CC[C@@]34CC(CC[C@H]3[C@]2(C)CC[C@@H]1O[C@@H]1O[C@H](CO)[C@@H](O)[C@H](O)[C@H]1O)[C@](C)(O)C4 (some centres undefined)
inactive

# iterate: CN(CC(=O)N(Cc1ccc(C2CCCCC2)cc1)c1ccc(C(=O)O)c(O)c1)S(=O)(=O)c1c(F)c(F)c(F)c(F)c1F
active

Now this one: CC[C@H]1OC(=O)C[C@@H](O)[C@H](C)[C@@H](O[C@@H]2O[C@H](C)[C@@H](O)[C@H](N(C)C)[C@H]2O)[C@@H](CCN2C[C@H](C)C[C@H](C)C2)C[C@@H](C)C(=O)/C=C/C(C)=C/[C@@H]1CO[C@@H]1O[C@H](C)[C@@H](O)[C@@H](OC)[C@H]1OC
inactive

Consider next the compound OC[C@H]1O[C@@H](Oc2ccccc2)[C@H](O)[C@@H](O)[C@@H]1O in the same way.
inactive

Entry to check: Nc1ncnc2c1ncn2[C@@H]1O[C@H](CO)[C@@H](O)[C@@H]1O
inactive

Would you kindly repeat that for C/C=C/C=C/C(O)=C1\C(O)=C(C)C(=O)[C@@]2(C)OC(=O)[C@@](C)(NC(=O)/C=C/C(=O)O)[C@@H]12 ?
inactive

Repeat for the following compound: CC(=O)N1CCc2ccc(O)c(OC3OC(COC4OCC(O)(CO)C4O)C(O)C(O)C3O)c2C1Cc1ccc(O)cc1 (centres undefined)
inactive

What do you have for CC1CCC2(C)C(CC(O)C(O)C23CO3)C1(C)CCC1=CC(O)OC1=O (centres undefined) ?
inactive

CN1CCN(c2c(F)cc3c(=O)c(C(=O)O)cn4c3c2OCN4C)CC1 ?
inactive

Another compound: NCC(=O)O
inactive

Same lookup for COc1ccc2cc(-c3cc(-c4cc(Cl)cc(Cl)c4)nn3C(C)c3ccc(C(=O)NCCC(=O)O)cc3)ccc2c1 (centres undefined) , please.
active

Same question for C[S+](CC[C@H](N)C(=O)[O-])C[C@H]1O[C@@H](n2cnc3c(N)ncnc32)[C@H](O)[C@@H]1O (some centres undefined) please.
inactive

Please give the result for CC1=C(c2ccc(NC(=O)c3c(F)cccc3F)cc2)CN(c2nccs2)CC1 too.
active

Same lookup for Cc1cc2c(F)c(Oc3ncnn4cc(OCC(C)O)c(C)c34)ccc2[nH]1 (centres undefined) , please.
active

Entry to check: NCC(=O)Nc1cncc(-c2nn3c(=O)cc(N4CCNCC4)nc3s2)c1
inactive

Then what about the compound CCOc1nc2cccc(C(=O)O)c2n1Cc1ccc(-c2ccccc2-c2nn[nH]n2)cc1 ?
inactive

And the next one, COC(=O)C1=CO[C@@H](O[C@@H]2O[C@H](CO)[C@@H](O)[C@H](O)[C@H]2O)[C@H]2[C@@H]1C=C[C@]21C=C([C@H](C)OC(=O)/C=C/c2ccc(O[C@@H]3O[C@H](CO)[C@@H](O)[C@H](O)[C@H]3O)cc2)C(=O)O1 ?
inactive

COc1ccc(S(=O)(=O)N(C(C)=O)c2ccccc2/C=C/c2cc[n+]([O-])cc2)cc1 ?
active

Also check C[N+]1(CC2COC(c3ccccc3)(C3CCCCC3)O2)CCCCC1 (centres undefined)
active

Now the same for CCCCNc1ncc(C(=O)NCc2ccc(-n3ccnc3)cc2)c(NC2CCC(O)CC2)n1 (centres undefined)
active

Check CC(C)S(=O)(=O)Nc1ccc(F)c(C(=O)c2c[nH]c3ncc(-c4cccnc4)cc23)c1F too.
active

Can you check CCOC(=O)C(C)(C)Oc1ccc(Cl)cc1 next?
inactive

Try this compound next: Cc1onc(C(=O)N2CCN(C(c3ccc(Cl)cc3)c3ccc(Cl)cc3)CC2)c1[N+](=O)[O-]
active

Do the same for C[C@@H]1CCNC(=O)c2cc3ccc(C(=O)Nc4nc5ccccc5n4CCCN(C)C)cc3n21 please
active

Follow-up item: C=C1CC[C@@H]2C(C)(C)CCC[C@@]2(C)[C@@H]1CC/C(=C/C(=O)OC)COC(C)=O
inactive

CCCC(=O)C1CCN(c2ncnc3c2CN(C(=O)c2ccc(-c4ccccc4)cc2)CC3)CC1 , same question.
active

Now this one: CCC[C@@H](NC(=O)N1C(=O)C(CC)(CC)[C@@H]1Oc1ccc(C(=O)N2CCN(C)CC2)cc1)c1ccc2c(c1)OCO2
active

Now consider Cc1ccc(F)cc1S(=O)(=O)N[C@@H]1CCN(Cc2ccc(OC(C)C)cc2)C1 .
active

====

assay-details: Viability qHTS for spleen associated tyrosine kinase inhibitor (SYKi) drug resistant MV4-11 cells (AID 1963824); note: nearly all actives have a fitted effect of over 35% in size
assay-context: SYKi-resistant MV4-11 viability, CellTiter-Glo, 72 h; series mostly up to 45 µM
Results filed as inconclusive are left out. The source made the active and inactive calls. Calls follow the shape of the dose curve; as a rule, active = well fitted cell-killing curve with a large enough effect; inconclusive = small, poorly fitted or top-dose-only effect, or effect the other way; inactive = no such curve, though single readings can be large or run the other way.
Outcome (select one): true (1) for active, false (0) for inactive

Would you mind telling me which call this test gave C=C1C2(C)CC3C4(C)C=CC(=O)OC(C)(C)C4CCC3(C)C1(C(=O)OC)C(=O)C(C)(O)C2=O (stereo not drawn) ?
true (1)

What do you get for C[C@@H](Oc1cc(-n2cnc3ccc(OC4CCN(C)CC4)cc32)sc1C(N)=O)c1ccccc1C(F)(F)F ?
true (1)

Then this molecule: CNc1nc(-c2ccc3c(N)n[nH]c3c2)cc(N2CC(C(=O)NC3CCCCC3)CCC2C)n1 (stereo not drawn)
true (1)

How about this molecule: Cc1ccc(-c2nn(C(C)(C)C)c3ncnc(N)c23)cc1
true (1)

Same question, CCCC[C@@H](C=O)NC(=O)[C@H](CC(C)C)NC(=O)OCc1ccccc1 this time
true (1)

One more molecule: COc1ccc(/C=C/C(=O)O[C@@H]2[C@@H](O)[C@@H](O)[C@H](O[C@H]3[C@@H]4C=CO[C@@H](O[C@@H]5O[C@H](CO)[C@@H](O)[C@H](O)[C@H]5O)[C@@H]4[C@@]4(CO)O[C@@H]34)O[C@H]2C)cc1
false (0)

Continue with Cc1c(C(=O)Nc2ccc(N3CC(C)OC(C)C3)nc2)cccc1-c1ccc(OC(F)(F)F)cc1 (stereo not drawn)
true (1)

Thanks! And NCCCC(O)(P(=O)(O)O)P(=O)(O)O ?
false (0)
